What TetR repression strength was measured for each of the following?
biological target: TetR (class B, Tn10); assay: TetR repression strength (sort-seq, GFP reporter) (relative to tetO2 = 1); higher = stronger repression; conditions: E. coli
Over roughly 18,000 sequences, “TetR repression strength (sort-seq, GFP reporter)” has its median near 0.23; the highest 2% begin near 0.68. Many of the other results were omitted from the sample, so the highest values are more common in it than they were.
Answers are plain numbers.

TCCCACTAAGTTATAGAGA :: 0.672
TCCCTTGCAGTCAATGAGA :: 0.251
TCCCCCCAAGTTGATGAGA :: 0.369
TCCCAGGCAGTCGGCGAGA :: 0.25
TCCCCGAGAGTTGGGGAGA :: 0.104
TCCCAAAAAGTGGTGGAGA :: 0.203

Provide the reported TetR repression strength of each entry below, same order.
1. TCCCGTCCAGTGTGTGAGA
2. TCCCTAACAGTCCACGAGA

a:
1. 0.22
2. 0.205

Provide the reported TetR repression strength of each entry below, same order.
1. TCCCGATGAGTATGTGAGA
2. TCCCCCGGAGTGGGCGAGA
3. TCCCGGACAGTTGGGGAGA
4. TCCCTTTGAGTCGCAGAGA
5. TCCCAATCAGTGAATGAGA
6. TCCCTATTAGTGAGAGAGA

a:
0.366
0.111
0.922
0.386
0.603
0.631

----------
biological target: TetR (class B, Tn10) (UniProt P04483); assay: TetR repression strength (sort-seq, GFP reporter) (relative to tetO2 = 1); higher = stronger repression; conditions: E. coli
Sequence (P04483 whole entry): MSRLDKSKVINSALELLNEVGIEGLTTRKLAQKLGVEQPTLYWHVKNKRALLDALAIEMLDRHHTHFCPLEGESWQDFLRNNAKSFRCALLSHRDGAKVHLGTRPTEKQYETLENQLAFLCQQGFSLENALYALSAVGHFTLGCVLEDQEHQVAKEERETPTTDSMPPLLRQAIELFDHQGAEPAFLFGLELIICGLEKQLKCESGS
Over roughly 18,000 sequences, “TetR repression strength (sort-seq, GFP reporter)” has its median near 0.23; the highest 2% begin near 0.68. Only a selection was taken, and the highest values are over-represented in it overall.
observed_property: TetR repression strength
One number for each entry.

Observe how each entry below is paired with its result.
TCCCAGACAGTCATCGAGA :: 0.368
TCCCTTGAAGTTACCGAGA :: 0.844
TCCCAATGAGTTCGTGAGA :: 0

Provide the reported TetR repression strength of each entry below, same order.
1. TCCCGACTAGTTCGCGAGA
2. TCCCTAAGAGTGCTGGAGA
3. TCCCCCTTAGTTGTCGAGA
4. TCCCGGGGAGTGCTGGAGA
5. TCCCATACAGTGCGCGAGA

a:
1. 0.367
2. 0.768
3. 0.307
4. 0.359
5. 0.394

Provide the reported TetR repression strength of each entry below, same order.
1. TCCCAAAGAGTGGGCGAGA
2. TCCCAGTGAGTACCCGAGA
3. TCCCGGTGAGTTGTCGAGA
4. TCCCACCGAGTTTTTGAGA
5. TCCCGCTTAGTTAGGGAGA

a:
[0.0498, 0.261, 0.355, 0.46, 1.02]

----------
What TetR repression strength was measured for each of the following?
molecular target: TetR (class B, Tn10) (UniProt P04483); test: TetR repression strength (sort-seq, GFP reporter) (relative to tetO2 = 1); higher = stronger repression; conditions: E. coli
Over roughly 18,000 sequences, “TetR repression strength (sort-seq, GFP reporter)” has its median near 0.23; the highest 2% begin near 0.68. The full list was thinned out, with the highest values kept by preference.
One number for each entry.

Observe how each entry below is paired with its result.
TCCCAGTGAGTCGCAGAGA :: 0.0941
TCCCGGTAAGTGGGTGAGA :: 0.141
TCCCAGCGAGTGACCGAGA :: 0.694
TCCCAGCTAGTGACGGAGA :: 0.226
TCCCGGTAAGTGGCTGAGA :: 1.11
TCCCAGTCAGTGAAAGAGA :: 0.62
TCCCGATGAGTGCTCGAGA :: 0.361
TCCCAGTAAGTCGGGGAGA :: 0.698
TCCCTGTGAGTGCTCGAGA :: 1.14
TCCCAACTAGTCGACGAGA :: 0.701

Provide the reported TetR repression strength of each entry below, same order.
1. TCCCTGTAAGTGACGGAGA
2. TCCCTATCAGTGACAGAGA
3. TCCCTATCAGTAAGTGAGA
4. TCCCAGTCAGTAGGCGAGA
5. TCCCGGATAGTAGCGGAGA
6. TCCCTCTGAGTGCTCGAGA
7. TCCCAGCGAGTGACGGAGA
8. TCCCGGTAAGTGAGAGAGA

a:
[0.796, 0.863, 0.545, 0.16, 0.329, 0.315, 0.207, 0.502]

Provide the reported TetR repression strength of each entry below, same order.
1. TCCCAGCTAGTGATTGAGA
2. TCCCTATCAGTGGCAGAGA
3. TCCCGCTAAGTCCGGGAGA
4. TCCCTATCAGTTGAAGAGA

a:
[0.306, 0.771, 0.188, 0.55]

Provide the reported TetR repression strength of each entry below, same order.
1. TCCCAGCTAGTGACCGAGA
2. TCCCGACGAGTCGACGAGA

a:
[0.694, 0.178]

Provide the reported TetR repression strength of each entry below, same order.
1. TCCCTGTGAGTTCGAGAGA
2. TCCCAACGAGTCAACGAGA
3. TCCCGGGAAGTTGATGAGA
4. TCCCCACCAGTATCAGAGA
5. TCCCAGCTAGTGAACGAGA
6. TCCCGACAAGTTATCGAGA
7. TCCCTGTCAGTGACAGAGA

a:
0.719
0.366
0.0797
0.697
0.379
0.226
0.636
